Assignment: determine reported IC50 for the given compounds.
Target: Gonadotropin-releasing hormone receptor (Homo sapiens)
Assay: Antagonism of human GnHR receptor, determined in a reporter gene assay in HEK293 cells
Type: functional, cell-based
Write the value in nM as a bare number.

Given the entry CC(=O)Nc1ccc(C[C@@H](NC(=O)[C@H](Cc2ccc(NC(=O)C[C@@H]3NC(=O)NC3=O)cc2)NC(=O)[C@H](CO)NC(=O)[C@@H](Cc2cccnc2)NC(=O)[C@@H](Cc2ccc(Cl)cc2)NC(=O)[C@@H](Cc2ccc3ccccc3c2)NC(C)=O)C(=O)N[C@@H](CC(C)C)C(=O)N[C@@H](CCCCNC(C)C)C(=O)N2CCC[C@H]2C(=O)N[C@H](C)C(N)=O)cc1 , report its measured IC50.
8.1

Given the entry CCNC(=O)Nc1ccc(C[C@H](NC(=O)[C@H](CO)NC(=O)[C@@H](Cc2cccnc2)NC(=O)[C@@H](Cc2ccc(Cl)cc2)NC(=O)[C@@H](Cc2ccc3ccccc3c2)NC(C)=O)C(=O)N[C@H](Cc2ccc(NC(=O)NCC)cc2)C(=O)N[C@@H](CC(C)C)C(=O)N[C@@H](CCCCNC(C)C)C(=O)N2CCC[C@H]2C(=O)N[C@H](C)C(N)=O)cc1 , report its measured IC50.
5

Given the entry CC(=O)N[C@H](Cc1ccc2ccccc2c1)C(=O)N[C@H](Cc1ccc(Cl)cc1)C(=O)N[C@H](Cc1cccnc1)C(=O)N[C@@H](CO)C(=O)N[C@@H](Cc1ccc(NC(=O)[C@@H]2CC(=O)NC(=O)N2)cc1)C(=O)N[C@H](CCCNC(N)=O)C(=O)N[C@@H](CC(C)C)C(=O)N[C@@H](CCCCNC(C)C)C(=O)N1CCC[C@H]1C(=O)N[C@H](C)C(N)=O , report its measured IC50.
5.8

* * *

Target: Gonadotropin-releasing hormone receptor (Homo sapiens, UniProt P30968)
Sequence (P30968 whole entry): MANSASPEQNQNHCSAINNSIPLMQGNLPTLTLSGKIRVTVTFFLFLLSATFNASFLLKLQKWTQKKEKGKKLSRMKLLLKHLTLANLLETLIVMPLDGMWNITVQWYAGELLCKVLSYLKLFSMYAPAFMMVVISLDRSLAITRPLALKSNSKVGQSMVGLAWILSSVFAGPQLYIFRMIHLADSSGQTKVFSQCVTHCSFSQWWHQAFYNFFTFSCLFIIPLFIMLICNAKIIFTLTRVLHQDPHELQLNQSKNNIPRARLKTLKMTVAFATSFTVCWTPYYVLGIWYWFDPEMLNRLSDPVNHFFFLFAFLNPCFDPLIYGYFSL
Test: Antagonism of human GnHR receptor, determined in a reporter gene assay in HEK293 cells
Type: functional, cell-based
Assignment: determine reported pIC50 for the given molecules.
pIC50 field: float, defined as -log10 of concentration (mol/L).

Given the entry CC(=O)Nc1ccc(C[C@@H](NC(=O)[C@H](Cc2ccc(NC(=O)[C@H]3CC(=O)NC(=O)N3)cc2)NC(=O)[C@H](CO)NC(=O)[C@@H](Cc2cccnc2)NC(=O)[C@@H](Cc2ccc(Cl)cc2)NC(=O)[C@@H](Cc2ccc3ccccc3c2)NC(C)=O)C(=O)N[C@@H](CC(C)C)C(=O)N[C@@H](CCCCNC(C)C)C(=O)N2CCC[C@H]2C(=O)N[C@H](C)C(N)=O)cc1 , report its measured pIC50.
8.07

Given the entry CC(=O)N[C@H](Cc1ccc2ccccc2c1)C(=O)N[C@H](Cc1ccc(Cl)cc1)C(=O)N[C@H](Cc1cccnc1)C(=O)N[C@@H](CO)C(=O)N[C@@H](Cc1ccc(NC(=O)[C@@H]2CC(=O)NC(=O)N2)cc1)C(=O)N[C@H](Cc1ccc(CNC(N)=O)cc1)C(=O)N[C@@H](CC(C)C)C(=O)N[C@@H](CCCCNC(C)C)C(=O)N1CCC[C@H]1C(=O)N[C@@H](C)CO , report its measured pIC50.
8.26

* * *

Target: Gonadotropin-releasing hormone receptor (Homo sapiens, UniProt P30968)
Test: Antagonism of human GnHR receptor, determined in a reporter gene assay in HEK293 cells
Format: functional, cell-based
Where a SMILES comes first, the peptide text is derived from it. [ ]: non-standard residue; d: D form. Phe(4-NHCONH2) = NC(=O)Nc1ccc(C[C@H](N)C(=O)O)cc1; dPhe(4-NH2) = Nc1ccc(C[C@@H](N)C(=O)O)cc1; dPhe(4-Cl) = N[C@H](Cc1ccc(Cl)cc1)C(=O)O; d2Nal = N[C@H](Cc1ccc2ccccc2c1)C(=O)O; Lys(iPr) = CC(C)NCCCC[C@H](N)C(=O)O; d3Pal = N[C@H](Cc1cccnc1)C(=O)O
Assignment: determine reported pIC50 for the given compounds.
pIC50 field: float, defined as -log10 of concentration (mol/L).

Give pIC50 (Gonadotropin-releasing hormone receptor (Homo sapiens, UniProt P30968)) of the following compound: CC(=O)Nc1ccc(C[C@@H](NC(=O)[C@H](Cc2ccc(NC(N)=O)cc2)NC(=O)[C@H](CO)NC(=O)[C@@H](Cc2cccnc2)NC(=O)[C@@H](Cc2ccc(Cl)cc2)NC(=O)[C@@H](Cc2ccc3ccccc3c2)NC(C)=O)C(=O)N[C@@H](CC(C)C)C(=O)N[C@@H](CCCCNC(C)C)C(=O)N2CCC[C@H]2C(=O)N[C@H](C)C(N)=O)cc1 (Ac-[d2Nal][dPhe(4-Cl)][d3Pal]S[Phe(4-NHCONH2)][dPhe(4-NH2)](Ac)L[Lys(iPr)]P[dA]-NH2)
8.14

Give pIC50 (Gonadotropin-releasing hormone receptor (Homo sapiens, UniProt P30968)) of the following compound: CC(=O)Nc1ccc(C[C@@H](NC(=O)[C@H](Cc2ccc(CNC(=O)[C@@H]3CC(=O)NC(=O)N3)cc2)NC(=O)[C@H](CO)NC(=O)[C@@H](Cc2cccnc2)NC(=O)[C@@H](Cc2ccc(Cl)cc2)NC(=O)[C@@H](Cc2ccc3ccccc3c2)NC(C)=O)C(=O)N[C@@H](CC(C)C)C(=O)N[C@@H](CCCCNC(C)C)C(=O)N2CCC[C@H]2C(=O)N[C@H](C)C(N)=O)cc1
8.10

Give pIC50 (Gonadotropin-releasing hormone receptor (Homo sapiens, UniProt P30968)) of the following compound: CC(=O)Nc1ccc(C[C@@H](NC(=O)[C@H](Cc2ccc(NC(=O)c3cnc(O)nc3O)cc2)NC(=O)[C@H](CO)NC(=O)[C@@H](Cc2cccnc2)NC(=O)[C@@H](Cc2ccc(Cl)cc2)NC(=O)[C@@H](Cc2ccc3ccccc3c2)NC(C)=O)C(=O)N[C@@H](CC(C)C)C(=O)N[C@@H](CCCCNC(C)C)C(=O)N2CCC[C@H]2C(=O)N[C@H](C)C(N)=O)cc1
8.09

* * *

Target: Gonadotropin-releasing hormone receptor (Homo sapiens, UniProt P30968)
Experiment: Antagonism of human GnHR receptor, determined in a reporter gene assay in HEK293 cells
Assay type: functional, cell-based
Where a SMILES comes first, the peptide text is derived from it. [ ]: non-standard residue; d: D form. dPhe(4-NHCONH2) = NC(=O)Nc1ccc(C[C@@H](N)C(=O)O)cc1; d(hArg(Et2)) = CCN=C(NCC)NCCCC[C@@H](N)C(=O)O; hArg(Et2) = CCN=C(NCC)NCCCC[C@H](N)C(=O)O; dPhe(4-Cl) = N[C@H](Cc1ccc(Cl)cc1)C(=O)O; Phe(4-NH2) = Nc1ccc(C[C@H](N)C(=O)O)cc1; d2Nal = N[C@H](Cc1ccc2ccccc2c1)C(=O)O; Lys(iPr) = CC(C)NCCCC[C@H](N)C(=O)O; NMeY = CN[C@@H](Cc1ccc(O)cc1)C(=O)O; dCit = NC(=O)NCCC[C@@H](N)C(=O)O; d3Pal = N[C@H](Cc1cccnc1)C(=O)O
quantity: IC50 (nM)
Write the value in nM as a bare number.

Give IC50 (Gonadotropin-releasing hormone receptor (Homo sapiens, UniProt P30968)) of the following molecule: CC(=O)N[C@H](Cc1ccc2ccccc2c1)C(=O)N[C@H](Cc1ccc(Cl)cc1)C(=O)N[C@H](Cc1cccnc1)C(=O)N[C@@H](CO)C(=O)N[C@@H](Cc1ccc(O)cc1)C(=O)N[C@H](CCCNC(N)=O)C(=O)N[C@@H](CC(C)C)C(=O)N[C@@H](CCCNC(=N)N)C(=O)N1CCC[C@H]1C(=O)N[C@H](C)C(N)=O [CETRORELIX] (Ac-[d2Nal][dPhe(4-Cl)][d3Pal]SY[dCit]LRP[dA]-NH2)
4.2

Give IC50 (Gonadotropin-releasing hormone receptor (Homo sapiens, UniProt P30968)) of the following molecule: CC(=O)Nc1ccc(C[C@H](NC(=O)[C@H](CO)NC(=O)[C@@H](Cc2cccnc2)NC(=O)[C@@H](Cc2ccc(Cl)cc2)NC(=O)[C@@H](Cc2ccc3ccccc3c2)NC(C)=O)C(=O)N[C@H](Cc2ccc(NC(N)=O)cc2)C(=O)N[C@@H](CC(C)C)C(=O)N[C@@H](CCCCNC(C)C)C(=O)N2CCC[C@H]2C(=O)N[C@H](C)C(N)=O)cc1 (Ac-[d2Nal][dPhe(4-Cl)][d3Pal]S[Phe(4-NH2)](Ac)[dPhe(4-NHCONH2)]L[Lys(iPr)]P[dA]-NH2)
6.1

Give IC50 (Gonadotropin-releasing hormone receptor (Homo sapiens, UniProt P30968)) of the following molecule: CCN=C(NCC)NCCCC[C@H](NC(=O)[C@H](CC(C)C)NC(=O)[C@@H](CCCCNC(=NCC)NCC)NC(=O)[C@H](Cc1ccc(O)cc1)NC(=O)[C@H](CO)NC(=O)[C@@H](Cc1cccnc1)NC(=O)[C@@H](Cc1ccc(Cl)cc1)NC(=O)[C@@H](Cc1ccc2ccccc2c1)NC(C)=O)C(=O)N1CCC[C@H]1C(=O)N[C@H](C)C(N)=O [GANIRELIX ACETATE] (Ac-[d2Nal][dPhe(4-Cl)][d3Pal]SY[d(hArg(Et2))]L[hArg(Et2)]P[dA]-NH2)
3.6

Give IC50 (Gonadotropin-releasing hormone receptor (Homo sapiens, UniProt P30968)) of the following molecule: CC(=O)N[C@H](Cc1ccc2ccccc2c1)C(=O)N[C@H](Cc1ccc(Cl)cc1)C(=O)N[C@H](Cc1cccnc1)C(=O)N[C@@H](CO)C(=O)N(C)[C@@H](Cc1ccc(O)cc1)C(=O)N[C@H](CC(N)=O)C(=O)N[C@@H](CC(C)C)C(=O)N[C@@H](CCCCNC(C)C)C(=O)N1CCC[C@H]1C(=O)N[C@H](C)C(N)=O [ABARELIX] (Ac-[d2Nal][dPhe(4-Cl)][d3Pal]S[NMeY][dN]L[Lys(iPr)]P[dA]-NH2)
3.5

Give IC50 (Gonadotropin-releasing hormone receptor (Homo sapiens, UniProt P30968)) of the following molecule: CC(=O)Nc1ccc(C[C@H](NC(=O)[C@H](CO)NC(=O)[C@@H](Cc2cccnc2)NC(=O)[C@@H](Cc2ccc(Cl)cc2)NC(=O)[C@@H](Cc2ccc3ccccc3c2)NC(C)=O)C(=O)N[C@H](Cc2ccc(CNC(N)=O)cc2)C(=O)N[C@@H](CC(C)C)C(=O)N[C@@H](CCCCNC(C)C)C(=O)N2CCC[C@H]2C(=O)N[C@H](C)C(N)=O)cc1
6.4
